Answer each item with its documented % bound.
Target: T1, human collagen type I, acid soluble, extracted from placenta (Sigma C7774) (human, UniProt P02452 162-1218; P08123 80-1119)
T1 construct: tissue extract, gelled and dried in wells; also called dried human collagen; h-Collagen
T1 sequence (P02452 162-1218 limits assumed, chain 1 of 2): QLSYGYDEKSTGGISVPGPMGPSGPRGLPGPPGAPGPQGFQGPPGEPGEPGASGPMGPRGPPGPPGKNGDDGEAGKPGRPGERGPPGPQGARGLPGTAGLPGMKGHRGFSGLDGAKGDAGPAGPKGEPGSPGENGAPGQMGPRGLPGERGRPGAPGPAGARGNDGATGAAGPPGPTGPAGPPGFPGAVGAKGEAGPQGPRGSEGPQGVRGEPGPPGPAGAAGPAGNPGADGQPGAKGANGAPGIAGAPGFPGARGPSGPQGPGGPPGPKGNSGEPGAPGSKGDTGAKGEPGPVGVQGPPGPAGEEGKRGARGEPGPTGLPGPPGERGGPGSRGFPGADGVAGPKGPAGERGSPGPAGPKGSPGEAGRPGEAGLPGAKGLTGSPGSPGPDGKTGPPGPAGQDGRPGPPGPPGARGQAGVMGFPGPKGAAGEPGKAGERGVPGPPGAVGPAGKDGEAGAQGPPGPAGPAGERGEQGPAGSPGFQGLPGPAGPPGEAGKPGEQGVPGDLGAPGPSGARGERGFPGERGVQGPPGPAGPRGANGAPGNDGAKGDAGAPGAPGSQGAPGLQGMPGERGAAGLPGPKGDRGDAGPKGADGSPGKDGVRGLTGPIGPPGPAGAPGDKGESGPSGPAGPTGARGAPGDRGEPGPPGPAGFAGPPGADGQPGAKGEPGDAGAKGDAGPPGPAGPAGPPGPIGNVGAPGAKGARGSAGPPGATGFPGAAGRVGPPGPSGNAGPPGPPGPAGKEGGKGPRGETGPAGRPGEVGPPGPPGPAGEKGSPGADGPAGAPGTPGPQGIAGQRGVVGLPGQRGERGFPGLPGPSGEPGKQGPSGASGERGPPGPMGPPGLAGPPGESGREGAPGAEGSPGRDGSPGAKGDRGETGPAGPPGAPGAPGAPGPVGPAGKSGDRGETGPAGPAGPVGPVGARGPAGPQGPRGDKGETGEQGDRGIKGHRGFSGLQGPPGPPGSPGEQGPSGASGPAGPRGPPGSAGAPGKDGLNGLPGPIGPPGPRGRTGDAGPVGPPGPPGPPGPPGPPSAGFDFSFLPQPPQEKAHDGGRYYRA
T1 sequence (P08123 80-1119 limits assumed, chain 2 of 2): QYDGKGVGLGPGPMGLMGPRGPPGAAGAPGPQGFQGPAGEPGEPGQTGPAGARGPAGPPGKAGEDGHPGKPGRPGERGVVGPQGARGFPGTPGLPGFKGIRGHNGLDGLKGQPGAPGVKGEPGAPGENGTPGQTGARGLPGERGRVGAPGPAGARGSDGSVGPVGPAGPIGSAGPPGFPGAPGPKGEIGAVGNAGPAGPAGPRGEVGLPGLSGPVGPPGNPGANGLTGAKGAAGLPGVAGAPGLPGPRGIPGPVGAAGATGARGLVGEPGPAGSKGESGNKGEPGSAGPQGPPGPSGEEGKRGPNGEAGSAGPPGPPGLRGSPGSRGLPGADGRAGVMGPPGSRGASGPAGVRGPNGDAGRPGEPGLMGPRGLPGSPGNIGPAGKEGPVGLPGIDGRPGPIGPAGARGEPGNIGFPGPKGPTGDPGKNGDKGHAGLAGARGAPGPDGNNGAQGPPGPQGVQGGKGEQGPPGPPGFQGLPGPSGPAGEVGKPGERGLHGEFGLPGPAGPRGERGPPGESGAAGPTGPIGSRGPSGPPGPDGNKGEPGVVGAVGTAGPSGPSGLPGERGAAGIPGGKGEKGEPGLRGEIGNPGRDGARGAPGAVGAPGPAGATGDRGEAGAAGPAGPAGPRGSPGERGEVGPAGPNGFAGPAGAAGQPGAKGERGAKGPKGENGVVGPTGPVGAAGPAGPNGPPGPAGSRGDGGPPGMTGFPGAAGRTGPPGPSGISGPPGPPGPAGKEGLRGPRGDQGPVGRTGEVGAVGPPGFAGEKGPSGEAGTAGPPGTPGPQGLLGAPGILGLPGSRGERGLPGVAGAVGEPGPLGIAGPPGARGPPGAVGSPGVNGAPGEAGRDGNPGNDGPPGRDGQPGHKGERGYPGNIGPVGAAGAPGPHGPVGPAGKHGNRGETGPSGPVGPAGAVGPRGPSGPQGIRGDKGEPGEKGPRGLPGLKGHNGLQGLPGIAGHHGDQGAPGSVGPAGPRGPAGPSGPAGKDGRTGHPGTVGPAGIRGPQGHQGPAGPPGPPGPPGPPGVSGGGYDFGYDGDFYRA
Test: dried collagen assay
Bridge positions count the residues as written; N and C are the ends. Square brackets hold non-standard residues; d marks the D form. Primed or numbered codes have the meaning given here. Side chains are listed from the residue outwards. Ends that are not written are not given here. Bip = N[C@@H](Cc1ccc(-c2ccccc2)cc1)C(=O)O; Gd^T(3) = GdDTPA attached via thiourea; Gd^G = not defined here; Gd^T = not defined here; Gd^T″ = GdDTPA-thiourea
State just the number; it will be interpreted in %.

Exam item: Consider the binder {Gd^T″}-GK([Gly-Gd^T″])WYCTTYFPHHYCLYG (disulfide 5-14 (inferred); not fully specified (C-terminus)) [Compound ID 990] and give its measured % bound.
Marked response: 59

Exam item: Query {Gd^G}-GQWTCSGDAYTWHCAYE (disulfide 5-14 (inferred); not fully specified (C-terminus); reading uncertain) [Compound ID 820] next
Marked response: 60

Exam item: Query {Gd^T″}-GK([Gly-Gd^T″])WHCYTYFPYHYCLYG (disulfide 5-14 (inferred)) [Compound ID 964] next
Marked response: 88

Exam item: Query {Gd^T″}-DWTCS[dY]DEYTWHCNYE (disulfide 4-13 (inferred); not fully specified (C-terminus)) [Compound ID 829] next
Marked response: 20

Exam item: Query {Gd^T(3)}-GK([Gly-Gd^T(3)])WHCTTYFPHHYCLY[Bip]K(Gd^T(3)) (disulfide 5-14; not fully specified (C-terminus)) [Compound ID 977] next
Marked response: 40

Exam item: Query {Gd^T}-G[dQ]WHCTTRFPHHYCLYG (disulfide 5-14 (inferred); not fully specified (C-terminus); reading uncertain) [Compound ID 866] next
Marked response: 60

Exam item: Query {Gd^T″}-K(Gd^T″)K(Gd^T″)WHCYTYFPHHYCVYG (disulfide 5-14 (inferred); not fully specified (C-terminus)) [Compound ID 801] next
Marked response: 81

Exam item: Query {Gd^T″}-GK([Gly-Gd^T″])WHCYTYFPHHYCVYGK(Gd^T″) (disulfide 5-14 (inferred); not fully specified (C-terminus)) [Compound ID 974] next
Marked response: 71

Exam item: Query {Gd^T}-DWTCYGDEYTWHCNYE (disulfide 4-13 (inferred); not fully specified (C-terminus); reading uncertain) [Compound ID 844] next
Marked response: 68
